// provenance: patent US20130196986A1

# target-entity: P2X7 receptor (Homo sapiens)
# Construct: stably expressing the full length P2X7 receptor
# Sequence (Q99572 whole entry): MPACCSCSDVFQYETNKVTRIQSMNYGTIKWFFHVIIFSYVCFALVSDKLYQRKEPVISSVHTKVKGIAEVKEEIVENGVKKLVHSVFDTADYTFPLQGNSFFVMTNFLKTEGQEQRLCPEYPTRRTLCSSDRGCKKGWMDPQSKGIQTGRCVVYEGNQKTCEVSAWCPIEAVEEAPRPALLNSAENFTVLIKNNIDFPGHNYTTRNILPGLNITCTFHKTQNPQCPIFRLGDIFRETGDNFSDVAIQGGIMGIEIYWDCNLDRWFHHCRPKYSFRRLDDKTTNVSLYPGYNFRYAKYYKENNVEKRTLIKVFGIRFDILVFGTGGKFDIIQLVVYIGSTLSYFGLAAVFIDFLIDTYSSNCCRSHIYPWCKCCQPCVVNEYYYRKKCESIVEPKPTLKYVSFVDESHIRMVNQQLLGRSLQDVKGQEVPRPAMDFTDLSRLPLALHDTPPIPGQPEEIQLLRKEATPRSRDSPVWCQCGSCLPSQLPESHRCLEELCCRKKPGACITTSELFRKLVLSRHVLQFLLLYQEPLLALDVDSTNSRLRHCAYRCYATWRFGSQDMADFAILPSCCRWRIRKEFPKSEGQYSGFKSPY
# assay-text: Ca++ flux assay (FLIPR) in P2X7-HEK-293 cell line stably expressing the full length P2X7 receptor, Bz-ATP activation
# condition-info: P2X7-HEK-293 cells; agonist Bz-ATP; fluorescence as total area over 90 seconds; read-out: P2X7 Ca Flux hu IC50
pIC50: −log10 of the molar value.
readout: pIC50

INSERT INTO assay_data (molecule, target_entity, readout, value_observed) VALUES
  ('Cc1c(-n2ccn3c(S(=O)(=O)Cc4ccccc4-c4cccs4)nnc3c2=O)cccc1C(F)(F)F', 'P2X7 receptor (Homo sapiens)', 'pIC50', 7.34),
  ('Cc1c(Cl)cccc1-n1ccn2c(SCc3cccc(Br)c3)nnc2c1=O', 'P2X7 receptor (Homo sapiens)', 'pIC50', 6.35),
  ('Cc1c(Cl)cccc1-n1ccn2c(SCc3ccccc3-c3ccccc3)nnc2c1=O', 'P2X7 receptor (Homo sapiens)', 'pIC50', 7.36),
  ('Cc1c(Cl)cccc1-n1ccn2c(SCC(=O)c3ccccc3C(F)(F)F)nnc2c1=O', 'P2X7 receptor (Homo sapiens)', 'pIC50', 6.35),
  ('COc1cccc(-c2ccccc2CS(=O)(=O)c2nnc3c(=O)n(-c4cccc(C(F)(F)F)c4C)ccn23)c1', 'P2X7 receptor (Homo sapiens)', 'pIC50', 7.33),
  ('Cc1c(-n2ccn3c(S(=O)(=O)Cc4ccccc4-c4ccc(C(F)(F)F)cc4)nnc3c2=O)cccc1C(F)(F)F', 'P2X7 receptor (Homo sapiens)', 'pIC50', 6.20),
  ('Cc1cccc(-c2ccccc2CS(=O)(=O)c2nnc3c(=O)n(-c4cccc(C(F)(F)F)c4C)ccn23)c1 [Compound 137]', 'P2X7 receptor (Homo sapiens)', 'pIC50', 7.52),
  ('Cc1c(-n2ccn3c(S(=O)(=O)Cc4ccsc4Br)nnc3c2=O)cccc1C(F)(F)F', 'P2X7 receptor (Homo sapiens)', 'pIC50', 7.81);
